molecular target: USP7 (Homo sapiens);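 further: fluorescence intensity readout of USP7 enzymatic activity, reaction incubated 90 min at room temperature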
Sequence (Q93009 whole entry): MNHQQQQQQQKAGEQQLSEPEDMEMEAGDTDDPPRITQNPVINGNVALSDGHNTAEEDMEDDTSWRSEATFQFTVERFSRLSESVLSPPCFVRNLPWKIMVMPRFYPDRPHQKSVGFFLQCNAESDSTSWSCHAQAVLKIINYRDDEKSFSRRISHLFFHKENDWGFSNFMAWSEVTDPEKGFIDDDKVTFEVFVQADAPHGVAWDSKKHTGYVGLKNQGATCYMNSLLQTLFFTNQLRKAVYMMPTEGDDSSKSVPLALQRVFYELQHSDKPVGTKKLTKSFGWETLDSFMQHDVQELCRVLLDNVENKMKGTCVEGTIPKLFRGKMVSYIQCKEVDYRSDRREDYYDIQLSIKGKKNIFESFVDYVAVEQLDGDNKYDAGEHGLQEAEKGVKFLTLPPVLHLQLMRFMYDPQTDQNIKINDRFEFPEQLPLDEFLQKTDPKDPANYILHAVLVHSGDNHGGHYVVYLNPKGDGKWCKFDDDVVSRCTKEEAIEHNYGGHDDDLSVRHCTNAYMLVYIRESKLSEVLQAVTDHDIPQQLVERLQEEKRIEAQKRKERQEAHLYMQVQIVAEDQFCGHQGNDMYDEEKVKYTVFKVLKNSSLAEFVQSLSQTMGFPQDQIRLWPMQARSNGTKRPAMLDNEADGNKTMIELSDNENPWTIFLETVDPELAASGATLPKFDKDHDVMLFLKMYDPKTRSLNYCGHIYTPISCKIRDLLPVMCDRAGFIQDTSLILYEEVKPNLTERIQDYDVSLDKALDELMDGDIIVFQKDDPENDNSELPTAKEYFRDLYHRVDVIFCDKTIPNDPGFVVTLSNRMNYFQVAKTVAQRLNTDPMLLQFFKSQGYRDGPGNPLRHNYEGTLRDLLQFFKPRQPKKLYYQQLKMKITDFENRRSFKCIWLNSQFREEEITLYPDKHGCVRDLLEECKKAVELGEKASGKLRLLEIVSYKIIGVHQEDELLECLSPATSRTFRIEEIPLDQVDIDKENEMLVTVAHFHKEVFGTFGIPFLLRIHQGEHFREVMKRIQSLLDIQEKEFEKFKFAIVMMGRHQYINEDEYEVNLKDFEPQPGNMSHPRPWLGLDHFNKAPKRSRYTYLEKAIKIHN
pIC50: −log10 of the molar value.
recorded endpoint: pIC50

Guide cases for pIC50, answers given:
compound | pIC50
CC(C)(C)c1cnn(Cc2cc3nccc(-c4cc(C#N)cc5c4N([C@H]4CN[C@@H](CO)C4)C[C@H]4C[C@@H]54)c3s2)c(=O)c1 (single isomer, unassigned) [Example 193b] | 7.00 to 8.00
N[C@H]1C[C@@H](N2CCCc3cc(Cl)cc(-c4ccnc5cc(CN6C(=O)CCC6=O)sc45)c32)C1 (single isomer, unassigned) [Example 42a] | > 8.00
O=C1CCC(=O)N1Cc1cc2nccc(-c3cc(Cl)cc4c3N([C@H]3CCCNC3)CCC4)c2s1 (single isomer, unassigned) [Example 51a] | > 8.00

Q: I'd like to know its pIC50. The compound in question is O=C1CCC(=O)N1Cc1cc2nccc(-c3cc(Cl)cc4c3C3(CCC4)CNCCO3)c2s1 (single isomer, unassigned) [Example 229a]
Ans: 7.00 to 8.00

Q: I'd like to know its pIC50. The compound in question is "CC1(C)C[C@H](N2CCCc3cc(C#N)cc(-c4ccnc5cc(CN6C(=O)CCCC6=O)sc45)c32)CN1"
Ans: > 8.00

Q: I'd like to know its pIC50. The compound in question is CC(C)(C)c1cnn(Cc2cc3nccc(-c4cc(C#N)cc5c4N([C@H]4CN[C@@H](CO)C4)C[C@@H]4C[C@H]54)c3s2)c(=O)c1 (single isomer, unassigned) [Example 193a]
Ans: < 6.00

The measured values listed here are drawn from patent US20240158412A1.
